- System: Staphylococcus
- Procedure text: Antimicrobial activity against linezolid-resistant coagulase-negative Staphylococcus by CLSI method
- Assay type: functional
Quantity name: MIC50 (µg/mL)
The reply should contain only the number, in µg/mL.

CC(=O)NC[C@H]1CN(c2ccc(N3CCOCC3)c(F)c2)C(=O)O1 | 16
Cn1nnc(-c2ccc(-c3ccc(N4C[C@H](CO)OC4=O)cc3F)cn2)n1 | 2
CCCCCCCCCC(=O)N[C@@H](Cc1c[nH]c2ccccc12)C(=O)N[C@H](CC(N)=O)C(=O)N[C@@H](CC(=O)O)C(=O)N[C@@H]1C(=O)NCC(=O)N[C@@H](CCCN)C(=O)N[C@@H](CC(=O)O)C(=O)N[C@H](C)C(=O)N[C@@H](CC(=O)O)C(=O)NCC(=O)N[C@H](CO)C(=O)N[C@@H]([C@H](C)CC(=O)O)C(=O)N[C@@H](CC(=O)c2ccccc2N)C(=O)O[C@@H]1C | 0.5

Record request: MIC50 value, item CC(=O)N[C@@H]1[C@H](Oc2c3cc4cc2Oc2ccc(cc2Cl)[C@@H](O[C@@H]2O[C@@H](CO)[C@@H](O)[C@H](O)[C@@H]2NC(C)=O)[C@@H]2NC(=O)[C@H](NC(=O)[C@@H]4NC(=O)[C@H]4NC(=O)[C@@H](Cc5ccc(c(Cl)c5)O3)NC(=O)[C@H](N)c3ccc(O)c(c3)Oc3cc(O)cc4c3)c3ccc(O)c(c3)-c3c(O[C@H]4O[C@H](CO)[C@@H](O)[C@@H](O)[C@@H]4O)cc(O)cc3[C@@H](C(=O)O)NC2=O)O[C@@H](CO)[C@@H](O)[C@@H]1O
4
